- assay-info: Oral bioavailability in rat (Sprague-Dawley) (fasted male) (dose 2 mg/kg)
- Assay type: ADME, organism-based
- run-conditions: in vivo
So basically: bioavailability at 20% or higher? That is true (1). Lower than 20%? That is false (0).

Sample answers from the record:
- compound: "CCCc1cc(Oc2ccc(F)cc2)ccc1OCCCOc1cccc(C2SC(=O)NC2=O)c1 (stereo not given)"
  cat: "true (1)"
- compound: "CCCc1cc(Oc2ccc(C(C)C)cc2)ccc1OCCCOc1cccc(C2SC(=O)NC2=O)c1 (stereo not given)"
  cat: "false (0)"
- compound: "CCCc1cc(Oc2ccc(Cl)cc2)ccc1OCCCOc1cccc(C2SC(=O)NC2=O)c1 (stereo not given)"
  cat: "true (1)"

Determine whether measured bioavailability meets or exceeds 20% for CCCc1cc(Oc2ccc(Cl)c(Cl)c2)ccc1OCCCOc1cccc(C2SC(=O)NC2=O)c1 (stereo not given)
false (0)
